This listing pairs molecules with measured growth inhibition.
# METHOD SUMMARY: NCI Yeast Anticancer Drug Screen. Data for the sgs1 mgt1 strain (AID 161);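 note: 0% = growth of cultures given vehicle only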
# TEST CONTEXT: S. cerevisiae sgs1 mgt1 strain, at 50.0 µM, stronger effect = higher value
# Protocol: Growth inhibition of yeast strains with defined genetic alterations is measured as a screen for potential anti-cancer activity. Selected strains with alterations in DNA damage repair or cell cycle control were exposed to compounds and growth inhibition was measured relative to vehicle treated controls. The strain used in this assay is sgs1 mgt1
Compounds without any hit were thinned out: in the full panel of roughly 79,000, 15% have a hit.
Give the number; % is assumed, so skip it.

Previously resolved entries follow.
{"MOLECULE": "Cc1ccc(SCc2ccc(Cl)cc2Cl)nn1", "growth inhibition [%]": 82.8}
{"MOLECULE": "Cn1c(=O)c2c(ncn2CCCCOc2ccc3c(c2)[n+]([O-])nc(N)[n+]3[O-])n(C)c1=O", "growth inhibition [%]": 69.9}
{"MOLECULE": "C=C1C[C@H]2C=Nc3cc(OCCCOc4cc5c(cc4OC)C(=O)N4CC(=C)C[C@H]4C=N5)c(OC)cc3C(=O)N2C1", "growth inhibition [%]": 97.7}
{"MOLECULE": "Cc1ccc(O)c(N=Nc2ccc(Cl)cc2)c1", "growth inhibition [%]": -20.8}
{"MOLECULE": "Cc1ccc2c(c1)C(O)(c1ccccc1)CCS2 (stereo not given)", "growth inhibition [%]": 91.8}

Consider CCCCCCCCCCCCCCCCCC(=O)Nc1ccn(C2OC(CO)C(O)C2O)c(=O)n1 (stereo not given) . Its measured growth inhibition is 67.8

Consider CCOC(=O)c1c[nH]cc1-c1cn(S(=O)(=O)c2ccccc2)cc1C . Its measured growth inhibition is 49.6

Consider O=C(C[n+]1ccccc1Cl)c1ccc(Oc2ccc(C(=O)C[n+]3ccccc3Cl)cc2)cc1 . Its measured growth inhibition is 30.5

Consider CCCCCNC(=O)C1C(=O)N(CCCCC)C(=O)/C1=N\N (stereo not given) . Its measured growth inhibition is 1.7

Consider c1ccc([P+](C[P+](c2ccccc2)(c2ccccc2)c2ccccc2)(c2ccccc2)c2ccccc2)cc1 . Its measured growth inhibition is 58.4

---

# METHOD SUMMARY: NCI Yeast Anticancer Drug Screen. Data for the sgs1 mgt1 strain (AID 161);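 note: 0% = growth of cultures given vehicle only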
# TEST CONTEXT: S. cerevisiae sgs1 mgt1 strain, at 50.0 µM
About 79,000 compounds went through this panel and 15% of them were active in at least one assay; those are over-represented in the sample as a whole. The source made the active and inactive calls. No stated cut-off is given here; in the data, active means growth inhibition above about 70%; inactive means the rest.
Bench note: report the call from true = active, false = inactive

Please review the following examples before continuing.
{"COMPOUND": "CC1=C(C2CO2)C(=O)C(C)=C(C2CO2)C1=O (centres undefined)", "LABEL CLASS": "true"}
{"COMPOUND": "NC(=O)N/N=C(/Cc1nc2ccccc2nc1C/C(=N/NC(N)=O)c1cccc2ccccc12)c1cccc2ccccc12", "LABEL CLASS": "false"}
{"COMPOUND": "Clc1cc[c]([Sn]([O][Sn]([c]2ccc(Cl)cc2)([c]2ccc(Cl)cc2)[c]2ccc(Cl)cc2)([c]2ccc(Cl)cc2)[c]2ccc(Cl)cc2)cc1", "LABEL CLASS": "true"}
{"COMPOUND": "CCC[CH2][Sn]([CH2]CCC)([O]C(=O)c1cc(OC)c(OC)c(OC)c1)[O]C(=O)c1cc(OC)c(OC)c(OC)c1", "LABEL CLASS": "true"}
{"COMPOUND": "Clc1ccccc1N1CCN(c2c3c(nc4ccccc24)CCCCC3)CC1", "LABEL CLASS": "true"}
{"COMPOUND": "Cc1c(N=Nc2c(S(=O)(=O)O)cc3cc(S(=O)(=O)O)c(N=Nc4c(C)n(C)n(-c5ccccc5)c4=O)c(O)c3c2O)c(=O)n(-c2ccccc2)n1C", "LABEL CLASS": "false"}
{"COMPOUND": "O=C(O)C1C2CC3CC(C2)CC1C3 (centres undefined)", "LABEL CLASS": "false"}
{"COMPOUND": "Oc1ccc(C2Oc3ccccc3C=C2c2ccccc2)cc1 (centres undefined)", "LABEL CLASS": "false"}

With those in mind, consider the next compound.
Please state the recorded outcome for this compound: CCC/C(C)=N/NC(=S)SC
true

These entries and their values trace back to PubChem BioAssay (NCI).
